target: Lysosomal acid glucosylceramidase (Homo sapiens); assay: Inhibition of wild type recombinant human lysosomal beta-glucocerebrosidase using 4-methylumbelliferyl-beta-D-glucopyranoside as substrate preincubated for 5 mins followed by substrate addition and measured after 30 mins by fluorescence assay
Sequence (P04062 whole entry): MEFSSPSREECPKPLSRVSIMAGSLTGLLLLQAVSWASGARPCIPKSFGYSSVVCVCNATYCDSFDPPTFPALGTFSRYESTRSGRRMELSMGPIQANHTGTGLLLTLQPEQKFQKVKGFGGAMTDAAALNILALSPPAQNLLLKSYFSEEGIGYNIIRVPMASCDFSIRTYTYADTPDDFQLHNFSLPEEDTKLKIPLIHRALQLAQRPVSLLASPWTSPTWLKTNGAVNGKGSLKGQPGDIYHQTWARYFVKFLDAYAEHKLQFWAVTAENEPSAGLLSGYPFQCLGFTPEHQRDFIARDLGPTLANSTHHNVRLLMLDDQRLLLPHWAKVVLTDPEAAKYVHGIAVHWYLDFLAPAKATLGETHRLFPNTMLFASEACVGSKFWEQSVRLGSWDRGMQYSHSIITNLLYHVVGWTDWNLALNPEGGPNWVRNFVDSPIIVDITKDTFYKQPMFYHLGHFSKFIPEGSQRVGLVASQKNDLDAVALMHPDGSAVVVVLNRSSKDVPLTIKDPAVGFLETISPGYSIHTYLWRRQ
pIC50: −log10 of the molar value.
Assay readout: pIC50

These solved cases illustrate the format of a correct answer.
- Molecule: "CN(c1nc(-c2cccnc2)nc2ccccc12)[C@H]1CCc2ccccc2C1"
  pIC50: 6.37
- Molecule: "c1ccc(OCCCNc2nc(-c3cccnc3)nc3ccccc23)cc1"
  pIC50: 5.60
- Molecule: "c1ccc(COCCNc2nc(-c3cccnc3)nc3ccccc23)cc1"
  pIC50: 5.14
- Molecule: "CC(CNc1nc(-c2cccnc2)nc2ccccc12)Oc1ccccc1 (stereo not drawn)"
  pIC50: 5.37

[A] CN(c1nc(-c2cccnc2)nc2ccccc12)[C@@H]1CCc2ccccc2C1
[B] CC(COc1ccccc1)Nc1nc(-c2cccnc2)nc2ccccc12 (stereo not drawn)
[C] CN(c1nc(-c2cccnc2)nc2ccccc12)C1CCCCCC1
Rank items: key pIC50, increasing. Form entry: labels listed in requested order.
C, A, B
(C: 5.00, A: 5.23, B: 5.73)

----------
biological target: Lysosomal acid glucosylceramidase (Homo sapiens); experiment: Activation of wild type recombinant human lysosomal beta-glucocerebrosidase at 0.048 to 100 uM using 4-methylumbelliferyl-beta-D-glucopyranoside as substrate preincubated for 5 mins followed by substrate addition and measured after 30 mins by fluorescence assay relative to control
The source made the active and inactive calls. No cut-off for these calls is given here.
Assay readout: Emax

- Molecule: "c1ccc(OC2CCN(c3nc(-c4cccnc4)nc4ccccc34)C2)cc1 (configuration not stated)"
  Assay readout: "Emax"
  Measured result: "276%"
- Molecule: "CN(CCCCc1ccccc1)c1nc(-c2cccnc2)nc2ccccc12"
  Assay readout: "Emax"
  Measured result: "190%"
- Molecule: "CN(CCOc1ccccc1)c1nc(-c2ccsc2)nc2ccccc12"
  Assay readout: "Emax"
  Measured result: "inactive"
- Molecule: "CN(CCOc1ccccc1)c1nc(-c2cncnc2)nc2ccccc12"
  Assay readout: "Emax"
  Measured result: "634%"

Any idea what its Emax is? The molecule is "CN(CCOc1ccccc1)c1nc(-c2ccoc2)nc2ccccc12"
145%

Please answer likewise for "c1ccc(OCCNc2nc(-c3cccnc3)nc3ccccc23)cc1"
140%

Field entry: "CN(C[C@H]1COc2ccccc2O1)c1nc(-c2cccnc2)nc2ccccc12"
780%

Same question for "CN(Cc1nc2ccccc2s1)c1nc(-c2cccnc2)nc2ccccc12" please.
517%

"c1ccc(O[C@H]2CCCN(c3nc(-c4cccnc4)nc4ccccc34)C2)cc1" ?
237%

What about this molecule? c1ccc(CC2CCCN(c3nc(-c4cccnc4)nc4ccccc34)C2)cc1 (configuration not stated)
160%

Next: "CN(Cc1cnc2ccccc2n1)c1nc(-c2cccnc2)nc2ccccc12"
674%

Query "CN(Cc1nc2ccccc2o1)c1nc(-c2cccnc2)nc2ccccc12" next
643%

Ok, now "c1cncc(-c2nc(N3CCCOCC3)c3ccccc3n2)c1"
423%

----------
molecular target: UniProtKB P04062; assay: Activation of wild type recombinant human lysosomal beta-glucocerebrosidase using 4-methylumbelliferyl-beta-D-glucopyranoside as substrate preincubated for 5 mins followed by substrate addition and measured after 30 mins by fluorescence assay; conditions: read-out: AC50
Assay readout: AC50 (µM)

Example results:
- Molecule: "CN(CCCOc1ccccc1)c1nc(-c2cccnc2)nc2ccccc12"
  AC50 / µM: 6.16
- Molecule: "c1ccc(O[C@H]2CCCN(c3nc(-c4cccnc4)nc4ccccc34)C2)cc1"
  AC50 / µM: 4.75
- Molecule: "c1ccc(C2CCCN(c3nc(-c4cccnc4)nc4ccccc34)C2)cc1 (stereo not given)"
  AC50 / µM: 4.66

[1] CN1Cc2ccc(CN(C)c3nc(-c4cccnc4)nc4ccccc34)cc2C1
[2] c1ccc(CC2CCCN(c3nc(-c4cccnc4)nc4ccccc34)C2)cc1 (stereo not given)
Select one: 1 or 2 . Criterion: greater recorded AC50. Choose, then provide that item's label.
1
